Cited source for all entries: the supplement of paper PMC4022240

assay-system: HaloTag-ING2 PHD (mouse Ing2 200-280)
test-protocol: peptide microarray binding signal (635 nm), min-max normalized on array (fraction of array maximum); higher = stronger binding
condition-context: peptide region: Unmod H1 variant; binder concentration: 100 nM
The binders listed here are annotated with their peptide microarray binding signal.
Reply briefly: the number, and no unit.

Ask: Suppose we examine the binder PPVSELITKAVAA [Unmod H1 variant P P V S E L I T K A V A A] ; what peptide microarray binding signal value has been reported?
Result: 0.00397

Ask: Another binder: KAKKPAATRKSSK [Unmod H1 variant K A K K P A A T R K S S K]
Result: 0.0068

Ask: Entry KAASGEAKPKAKK [Unmod H1 variant K A A S G E A K P K A K K] please
Result: 0.0113

Ask: Okay, and APAPAEKTPVKKK [Unmod H1 variant A P A P A E K T P V K K K] ?
Result: 0.012

Turning now to a further record.
Ask: Which measured peptide microarray binding signal value corresponds to TLVQTKGTGASGS [Unmod H1 variant T L V Q T K G T G A S G S] ?
Result: 0.0165
